Items are presented alongside their recorded microsomal CLint at 1.11 µM.
# experiment-description: Clearance in human liver microsomes at 1.11 uM preincubated for 10 mins followed by NADPH addition by LC-MS/MS analysis
# Assay type: ADME, microsome
# condition-summary: read-out: CLH

# compound-smiles, microsomal CLint at 1.11 µM / µL/min/mg
rows = [
    ("C[C@@H]1CC[C@@H]2[C@]34OO[C@](C)(CC[C@@H]13)O[C@H]4O[C@]2(C)COP(=O)(OC[C@@]1(C)O[C@@H]2O[C@@]3(C)CC[C@H]4[C@H](C)CC[C@@H]1[C@@]24OO3)Oc1ccccc1", 54),
    ("C[C@@H]1CC[C@H]2[C@@H](O)[C@H](OC(=O)CCC(=O)O[C@@H]3O[C@@H]4O[C@@]5(C)CC[C@H]6[C@H](C)CC[C@@H]([C@H]3O)[C@@]46OO5)O[C@@H]3O[C@@]4(C)CC[C@@H]1[C@]32OO4", 124),
]
